This collection of values is drawn from patent US5756423A.

# Tested on: yellow nutsedge (Cyperus esculentus) (CYPES)
# Assay Method Text: post-emergent herbicidal test, yellow nutsedge
# Type: in vivo
# Assay Context: Cyperus, post-emergence, post-emergent, 1.0 kg/ha (*), 17-21 days after application; read-out: CYPES percent control
Property Name: pest or weed control at 1000 g/ha (%)

- Compound: "CC1CCN(CC(P(=O)(O)O)P(=O)(O)O)CC1 [Compound 30]"
  Property Name: "pest or weed control at 1000 g/ha"
  Observed: 5
- Compound: "CCCN(CCC)CC(P(=O)(O)O)P(=O)(O)O [Compound 19]"
  Property Name: "pest or weed control at 1000 g/ha"
  Observed: 10
- Compound: "CC1CC(C)CN(CC(P(=O)(O)O)P(=O)(O)O)C1 (centres unmarked) [Compound 35]"
  Property Name: "pest or weed control at 1000 g/ha"
  Observed: 0
- Compound: "CCCCCCNCC(P(=O)(O)O)P(=O)(O)O [Compound 17]"
  Property Name: "pest or weed control at 1000 g/ha"
  Observed: 0
- Compound: "CC(C)N(C)CC(P(=O)(O)O)P(=O)(O)O [Compound 33]"
  Property Name: "pest or weed control at 1000 g/ha"
  Observed: 10

###

Listing of recorded pest or weed control at 1000 g/ha by entry.
# System: barnyard grass (Enchinochloa crusgalli) (ECHCG)
# Assay Method Text: post-emergent herbicidal test, barnyard grass
# Assay type: in vivo
# Assay Context: Echinochloa crus-galli, post-emergence, post-emergent, 1.0 kg/ha (*), 17-21 days after application; read-out: ECHCG percent control

- Compound: "CC1CCCN(CC(P(=O)(O)O)P(=O)(O)O)C1C (stereo not shown)"
  System Under Test: "barnyard grass (Enchinochloa crusgalli) (ECHCG)"
  pest or weed control at 1000 g/ha, %: 100
- Compound: "CCCN(CCC(C)C)CC(P(=O)(O)O)P(=O)(O)O"
  System Under Test: "barnyard grass (Enchinochloa crusgalli) (ECHCG)"
  pest or weed control at 1000 g/ha, %: 100
- Compound: "O=P(O)(O)C(CN1CCCC1)P(=O)(O)O"
  System Under Test: "barnyard grass (Enchinochloa crusgalli) (ECHCG)"
  pest or weed control at 1000 g/ha, %: 90
- Compound: "CCCN(CC(C)C)CC(P(=O)(O)O)P(=O)(O)O"
  System Under Test: "barnyard grass (Enchinochloa crusgalli) (ECHCG)"
  pest or weed control at 1000 g/ha, %: 98
- Compound: "C=C(C)CNCC(P(=O)(O)O)P(=O)(O)O"
  System Under Test: "barnyard grass (Enchinochloa crusgalli) (ECHCG)"
  pest or weed control at 1000 g/ha, %: 95
- Compound: "C=CCN(CC=C)CC(P(=O)(O)O)P(=O)(O)O"
  System Under Test: "barnyard grass (Enchinochloa crusgalli) (ECHCG)"
  pest or weed control at 1000 g/ha, %: 95
- Compound: "CC1(C)CCCN(CC(P(=O)(O)O)P(=O)(O)O)C1"
  System Under Test: "barnyard grass (Enchinochloa crusgalli) (ECHCG)"
  pest or weed control at 1000 g/ha, %: 0
- Compound: "Cc1cnn(CC(P(=O)(O)O)P(=O)(O)O)c1"
  System Under Test: "barnyard grass (Enchinochloa crusgalli) (ECHCG)"
  pest or weed control at 1000 g/ha, %: 30
- Compound: "CC(NCC(P(=O)(O)O)P(=O)(O)O)c1ccc(F)cc1 (stereo not shown)"
  System Under Test: "barnyard grass (Enchinochloa crusgalli) (ECHCG)"
  pest or weed control at 1000 g/ha, %: 100
- Compound: "CCCCNCC(P(=O)(O)O)P(=O)(O)O"
  System Under Test: "barnyard grass (Enchinochloa crusgalli) (ECHCG)"
  pest or weed control at 1000 g/ha, %: 90
- Compound: "CCCCCCN(CCC)CC(P(=O)(O)O)P(=O)(O)O"
  System Under Test: "barnyard grass (Enchinochloa crusgalli) (ECHCG)"
  pest or weed control at 1000 g/ha, %: 90
- Compound: "C=CCCNCC(P(=O)(O)O)P(=O)(O)O"
  System Under Test: "barnyard grass (Enchinochloa crusgalli) (ECHCG)"
  pest or weed control at 1000 g/ha, %: 100
- Compound: "O=P(O)(O)C(CNC1Cc2ccccc2C1)P(=O)(O)O"
  System Under Test: "barnyard grass (Enchinochloa crusgalli) (ECHCG)"
  pest or weed control at 1000 g/ha, %: 15
- Compound: "CC1CCCN1CC(P(=O)(O)O)P(=O)(O)O (stereo not shown)"
  System Under Test: "barnyard grass (Enchinochloa crusgalli) (ECHCG)"
  pest or weed control at 1000 g/ha, %: 98
- Compound: "O=P(O)(O)C(CNC1CCc2ccccc21)P(=O)(O)O (stereo not shown)"
  System Under Test: "barnyard grass (Enchinochloa crusgalli) (ECHCG)"
  pest or weed control at 1000 g/ha, %: 50
- Compound: "CC1CC(C)CN(CC(P(=O)(O)O)P(=O)(O)O)C1 (stereo not shown)"
  System Under Test: "barnyard grass (Enchinochloa crusgalli) (ECHCG)"
  pest or weed control at 1000 g/ha, %: 15
- Compound: "CC[C@H](C)NCC(P(=O)(O)O)P(=O)(O)O"
  System Under Test: "barnyard grass (Enchinochloa crusgalli) (ECHCG)"
  pest or weed control at 1000 g/ha, %: 100
- Compound: "O=P(O)(O)C(CN1C=NCCC1)P(=O)(O)O"
  System Under Test: "barnyard grass (Enchinochloa crusgalli) (ECHCG)"
  pest or weed control at 1000 g/ha, %: 100
- Compound: "CCC1CCCCN1CC(P(=O)(O)O)P(=O)(O)O (stereo not shown)"
  System Under Test: "barnyard grass (Enchinochloa crusgalli) (ECHCG)"
  pest or weed control at 1000 g/ha, %: 100
- Compound: "CCOCCNCC(P(=O)(O)O)P(=O)(O)O"
  System Under Test: "barnyard grass (Enchinochloa crusgalli) (ECHCG)"
  pest or weed control at 1000 g/ha, %: 15
- Compound: "CCCN(C)CC(P(=O)(O)O)P(=O)(O)O"
  System Under Test: "barnyard grass (Enchinochloa crusgalli) (ECHCG)"
  pest or weed control at 1000 g/ha, %: 95
- Compound: "CCC(C)NCC(P(=O)(O)O)P(=O)(O)O (stereo not shown)"
  System Under Test: "barnyard grass (Enchinochloa crusgalli) (ECHCG)"
  pest or weed control at 1000 g/ha, %: 98
- Compound: "CCN(CC)CC(P(=O)(O)O)P(=O)(O)O"
  System Under Test: "barnyard grass (Enchinochloa crusgalli) (ECHCG)"
  pest or weed control at 1000 g/ha, %: 40
- Compound: "O=P(O)(O)C(CN1CC=CCC1)P(=O)(O)O"
  System Under Test: "barnyard grass (Enchinochloa crusgalli) (ECHCG)"
  pest or weed control at 1000 g/ha, %: 100
- Compound: "CC1CCN(CC(P(=O)(O)O)P(=O)(O)O)CC1"
  System Under Test: "barnyard grass (Enchinochloa crusgalli) (ECHCG)"
  pest or weed control at 1000 g/ha, %: 90
- Compound: "O=P(O)(O)C(Cn1ccnc1)P(=O)(O)O"
  System Under Test: "barnyard grass (Enchinochloa crusgalli) (ECHCG)"
  pest or weed control at 1000 g/ha, %: 98
- Compound: "C=CCN(C)CC(P(=O)(O)O)P(=O)(O)O"
  System Under Test: "barnyard grass (Enchinochloa crusgalli) (ECHCG)"
  pest or weed control at 1000 g/ha, %: 95
- Compound: "CCCN(CC)CC(P(=O)(O)O)P(=O)(O)O"
  System Under Test: "barnyard grass (Enchinochloa crusgalli) (ECHCG)"
  pest or weed control at 1000 g/ha, %: 100
- Compound: "O=P(O)(O)C(CNCC(F)(F)F)P(=O)(O)O"
  System Under Test: "barnyard grass (Enchinochloa crusgalli) (ECHCG)"
  pest or weed control at 1000 g/ha, %: 0
- Compound: "Cc1cn(CC(P(=O)(O)O)P(=O)(O)O)cn1"
  System Under Test: "barnyard grass (Enchinochloa crusgalli) (ECHCG)"
  pest or weed control at 1000 g/ha, %: 98
- Compound: "C=CCN(CC)CC(P(=O)(O)O)P(=O)(O)O"
  System Under Test: "barnyard grass (Enchinochloa crusgalli) (ECHCG)"
  pest or weed control at 1000 g/ha, %: 90
- Compound: "CCCN(CCC(=O)O)CC(P(=O)(O)O)P(=O)(O)O"
  System Under Test: "barnyard grass (Enchinochloa crusgalli) (ECHCG)"
  pest or weed control at 1000 g/ha, %: 0
- Compound: "O=P(O)(O)C(CNCCc1ccccc1)P(=O)(O)O"
  System Under Test: "barnyard grass (Enchinochloa crusgalli) (ECHCG)"
  pest or weed control at 1000 g/ha, %: 5
- Compound: "CC(C)N(C)CC(P(=O)(O)O)P(=O)(O)O"
  System Under Test: "barnyard grass (Enchinochloa crusgalli) (ECHCG)"
  pest or weed control at 1000 g/ha, %: 100
- Compound: "CC1CCCN(CC(P(=O)(O)O)P(=O)(O)O)C1 (stereo not shown)"
  System Under Test: "barnyard grass (Enchinochloa crusgalli) (ECHCG)"
  pest or weed control at 1000 g/ha, %: 30
- Compound: "CCCCCCNCC(P(=O)(O)O)P(=O)(O)O"
  System Under Test: "barnyard grass (Enchinochloa crusgalli) (ECHCG)"
  pest or weed control at 1000 g/ha, %: 50
- Compound: "CCCCN(CCC)CC(P(=O)(O)O)P(=O)(O)O"
  System Under Test: "barnyard grass (Enchinochloa crusgalli) (ECHCG)"
  pest or weed control at 1000 g/ha, %: 100
- Compound: "CCCCCN(CCC)CC(P(=O)(O)O)P(=O)(O)O"
  System Under Test: "barnyard grass (Enchinochloa crusgalli) (ECHCG)"
  pest or weed control at 1000 g/ha, %: 85
- Compound: "O=P(O)(O)C(CN[C@@H]1C[C@H]1c1ccccc1)P(=O)(O)O (relative stereo)"
  System Under Test: "barnyard grass (Enchinochloa crusgalli) (ECHCG)"
  pest or weed control at 1000 g/ha, %: 5
- Compound: "CC1CCCC1NCC(P(=O)(O)O)P(=O)(O)O (stereo not shown)"
  System Under Test: "barnyard grass (Enchinochloa crusgalli) (ECHCG)"
  pest or weed control at 1000 g/ha, %: 60
